- system-name: VLA4 (Homo sapiens, UniProt P05556+P13612)
- Construct: endogenous in cells; host or cells: Ramos cells
- Sequence (P13612 34-1032): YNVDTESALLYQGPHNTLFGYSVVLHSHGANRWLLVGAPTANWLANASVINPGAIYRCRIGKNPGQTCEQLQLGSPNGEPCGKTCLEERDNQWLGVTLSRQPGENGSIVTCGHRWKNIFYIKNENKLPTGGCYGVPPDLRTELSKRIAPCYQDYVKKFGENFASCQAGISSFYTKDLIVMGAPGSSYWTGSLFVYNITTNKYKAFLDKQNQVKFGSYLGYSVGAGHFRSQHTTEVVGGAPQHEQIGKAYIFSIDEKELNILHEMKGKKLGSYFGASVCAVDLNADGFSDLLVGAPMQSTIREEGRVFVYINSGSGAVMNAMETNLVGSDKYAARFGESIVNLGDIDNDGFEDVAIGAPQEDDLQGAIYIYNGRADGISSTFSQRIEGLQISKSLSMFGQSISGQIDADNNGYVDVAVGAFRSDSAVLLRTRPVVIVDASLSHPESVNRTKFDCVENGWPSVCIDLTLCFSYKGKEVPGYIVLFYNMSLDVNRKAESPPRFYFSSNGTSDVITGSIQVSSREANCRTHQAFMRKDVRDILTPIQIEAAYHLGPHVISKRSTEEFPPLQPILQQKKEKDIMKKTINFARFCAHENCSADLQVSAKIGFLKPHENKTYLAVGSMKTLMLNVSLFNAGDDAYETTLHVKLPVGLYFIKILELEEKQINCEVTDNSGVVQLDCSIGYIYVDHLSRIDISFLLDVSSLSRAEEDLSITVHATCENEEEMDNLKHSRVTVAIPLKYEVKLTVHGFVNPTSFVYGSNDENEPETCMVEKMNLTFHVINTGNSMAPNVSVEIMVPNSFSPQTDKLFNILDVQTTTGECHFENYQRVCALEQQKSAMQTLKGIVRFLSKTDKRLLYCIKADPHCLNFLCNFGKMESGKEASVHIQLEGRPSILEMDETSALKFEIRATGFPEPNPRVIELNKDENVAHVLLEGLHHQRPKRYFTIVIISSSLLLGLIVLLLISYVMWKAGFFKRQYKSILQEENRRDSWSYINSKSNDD
- Sequence (P05556 21-798): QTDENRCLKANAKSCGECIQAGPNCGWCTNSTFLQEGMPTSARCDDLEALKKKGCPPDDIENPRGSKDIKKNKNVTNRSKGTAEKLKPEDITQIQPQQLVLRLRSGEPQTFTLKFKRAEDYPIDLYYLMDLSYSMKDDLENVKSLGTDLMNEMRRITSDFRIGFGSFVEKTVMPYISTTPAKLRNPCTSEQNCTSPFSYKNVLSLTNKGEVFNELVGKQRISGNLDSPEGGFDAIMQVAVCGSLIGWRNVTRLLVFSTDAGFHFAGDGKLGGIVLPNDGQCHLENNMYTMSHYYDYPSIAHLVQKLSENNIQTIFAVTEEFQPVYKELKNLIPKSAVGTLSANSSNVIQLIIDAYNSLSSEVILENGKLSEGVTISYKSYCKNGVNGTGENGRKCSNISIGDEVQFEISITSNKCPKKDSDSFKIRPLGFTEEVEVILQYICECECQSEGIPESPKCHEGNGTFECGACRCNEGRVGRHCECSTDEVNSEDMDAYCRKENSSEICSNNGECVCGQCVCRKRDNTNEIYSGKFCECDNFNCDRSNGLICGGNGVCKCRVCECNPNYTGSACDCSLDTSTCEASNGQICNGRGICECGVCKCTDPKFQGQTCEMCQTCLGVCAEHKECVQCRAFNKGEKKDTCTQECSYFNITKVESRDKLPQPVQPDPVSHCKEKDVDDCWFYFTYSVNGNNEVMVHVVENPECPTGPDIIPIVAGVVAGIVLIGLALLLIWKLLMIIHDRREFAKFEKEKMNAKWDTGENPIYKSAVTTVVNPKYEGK
- assay: Inhibition of VLA4-dependent adhesion to BSA-CS1
- Format: cell-based
- measurement-setup: binding of BCECF-labelled Ramos cells to BSA-CS1 coated wells, 2 mM MnCl2; read-out: IC50
assay-metric: IC50

Qu. I am curious: what IC50 value has been reported for CCC(C)C(NC(=O)C(CC(=O)O)NC(=O)C(CC(C)C)NC(=O)c1ccc2ccccc2n1)C(=O)NC (stereo not drawn) ?
Ans. 50 to 10000 nM

Qu. Subsequent entry: COC(=O)[C@@H](CC(C)C)NC(=O)[C@H](CC(=O)O)NC(=O)[C@@H]1CCCN1C(=O)Cc1ccc(NC(=O)Nc2ccccc2C)cc1
Ans. 50 to 10000 nM

Qu. Entry to check: Cc1ccccc1NC(=O)Nc1ccc(CC(=O)N[C@@H](CO)C(=O)N[C@@H](CC(=O)O)C(=O)N[C@@H](CCC(=O)O)C(N)=O)cc1
Ans. < 50 nM

====

- system-name: VLA4 (Homo sapiens, UniProt P05556+P13612)
- Construct: endogenous in cells; host or cells: Ramos cells
- assay: Inhibition of VLA4-dependent adhesion to BSA-CS1
- Format: cell-based
- measurement-setup: binding of BCECF-labelled Ramos cells to BSA-CS1 coated wells, 2 mM MnCl2; read-out: IC50
pIC50: −log10 of the molar value. Numbered stars: 1 amine (or outer) side, 2 acyl side, 3 side chain; on linkers, the order of the positions; unused ones are H or OH. Square brackets hold non-standard residues; d marks the D form. Peptide text beside a SMILES is read from it. * marks the point of attachment. X1 = O=C(Cc1ccc(N[*:1])cc1)[*:2]; CO = O=C([*:1])[*:2]; NHPh = c1ccc(N*)cc1
Consider the following compounds; for each one, report its pIC50.

Qu. State the recorded pIC50 for this entry: CC[C@H](C)[C@H](NC(=O)[C@H](CC(=O)O)NC(=O)[C@H](CC(C)C)NC(=O)Cc1ccc(NC(=O)Nc2ccccc2C)cc1)C(=O)O
Ans. > 7.30

Qu. What do you have for CSCC[C@H](NC(=O)Cc1ccc(NC(=O)Nc2ccccc2C)cc1)C(=O)N[C@@H](CC(=O)O)C(=O)N[C@@H](CC(=O)O)C(N)=O ?
Ans. > 7.30

Qu. Can you check Cc1ccccc1NC(=O)Nc1ccc(CC(=O)N[C@H](C(=O)N[C@@H](CC(=O)O)C(=O)N[C@H](CC(N)=O)C(N)=O)[C@@H](C)O)cc1 next?
Ans. > 7.30

Qu. And the next one, CC(C)C[C@H](NC(=O)C1COc2ccc(Cl)cc2C1)C(=O)N[C@@H](CC(=O)O)C(=O)N[C@H](C(=O)O)C(C)C (stereo partly drawn) ?
Ans. < 5.00

Qu. Another compound to look at: CC(C)C[C@H](NC(=O)Cc1ccc(NC(=O)Nc2ccccc2)cc1)C(=O)N[C@@H](CC(=O)O)C(=O)N[C@H](C(=O)N1CCC[C@H]1C(N)=O)C(C)C [Compound 208] ({NHPh-CO}-[X1]LDVP-NH2)
Ans. > 7.30

Qu. Another compound to check: CCCC(NC(=O)C(CC(=O)O)NC(=O)C(CC(C)C)NC(=O)c1ccc2ccccc2n1)C(=O)NC (stereo not drawn)
Ans. < 5.00

Qu. Next compound: Cc1ccccc1NC(=O)Nc1ccc(CC(=O)N2CCC2C(=O)N[C@@H](CC(=O)O)C(=O)N[C@H](CC(C)C)C(=O)O)cc1 (stereo partly drawn)
Ans. 5.00 to 7.30

Qu. Next up: Cc1ccccc1NC(=O)Nc1ccc(CC(=O)N[C@H](CC(C)C)C(=O)N[C@@H](CC(=O)O)C(=O)N[C@H](CCC(=O)O)C(N)=O)cc1
Ans. > 7.30

Qu. Repeat with CC(C)CC(NC(=O)Cc1ccc(NC(=O)Nc2ccccc2)cc1)C(=O)NC(CC(=O)O)C(=O)NC(C(=O)N1CCCC1C(N)=O)C(C)C (stereo not drawn) [Compound 199] ({NHPh-CO}-[X1]LDVP-NH2; configuration not given here)
Ans. 5.00 to 7.30

Qu. Then this compound: CC(C)C[C@H](NC(=O)c1ccc2c(c1)CCO2)C(=O)N[C@@H](CC(=O)O)C(=O)N[C@H](C(=O)O)C(C)C
Ans. < 5.00

Qu. Entry Cc1ccccc1NC(=O)Nc1ccc(CC(=O)N[C@@H](CCC(=O)O)C(=O)N[C@@H](CC(=O)O)C(=O)N[C@@H](Cc2c[nH]c3ccccc23)C(N)=O)cc1 please
Ans. > 7.30

Qu. Same read-out for COC(=O)C1CCCN1C(=O)C(NC(=O)C(CC(=O)O)NC(=O)C(CC(C)C)NC(=O)Cc1ccccc1)C(C)C (stereo not drawn) ?
Ans. 5.00 to 7.30

====

- system-name: VLA4 (Homo sapiens, UniProt P05556+P13612)
- Construct: endogenous in cells; host or cells: Ramos cells
- assay: Inhibition of VLA4-dependent adhesion to BSA-CS1
- Type: cell-based
- measurement-setup: binding of BCECF-labelled Ramos cells to BSA-CS1 coated wells, 2 mM MnCl2; read-out: IC50
pIC50: −log10 of the molar value.
assay-metric: pIC50

Qu. Find the recorded pIC50 belonging to Cc1ccccc1NC(=O)Nc1ccc(CC(=O)N[C@H](C(=O)N[C@@H](CC(=O)O)C(=O)N[C@H](CO)C(N)=O)[C@@H](C)O)cc1 [Compound 262] and report it.
Ans. > 7.30

Qu. Another molecule to check: Cc1ccccc1NC(=O)Nc1ccc(CC(=O)N2CCC[C@H]2C(=O)N[C@@H](CC(=O)O)C(=O)N[C@H](CC(C)C)C(N)=O)cc1 [Compound 244]
Ans. > 7.30

Qu. And what about the molecule Cc1ccccc1NC(=O)Nc1ccc(CC(=O)N[C@@H](CO)C(=O)N[C@@H](CC(=O)O)C(=O)N[C@H](CCC(=O)O)C(N)=O)cc1 [Compound 283] ?
Ans. > 7.30

====

- system-name: VLA4 (Homo sapiens, UniProt P05556+P13612)
- Construct: endogenous in cells; host or cells: Ramos cells
- assay: Inhibition of VLA4-dependent adhesion to BSA-CS1
- Type: cell-based
- measurement-setup: binding of BCECF-labelled Ramos cells to BSA-CS1 coated wells, 2 mM MnCl2; read-out: IC50
pIC50: −log10 of the molar value. Numbered stars: 1 amine (or outer) side, 2 acyl side, 3 side chain; on linkers, the order of the positions; unused ones are H or OH. Square brackets hold non-standard residues; d marks the D form. Peptide text beside a SMILES is read from it. * marks the point of attachment. X4 = COc1nc(CC(=O)[*:2])ccc1N[*:1]; NH(2-Me-phenyl) = Cc1ccccc1N*; Nva = CCC[CH](N)C(=O)O; PhAc = O=C(Cc1ccccc1)*; CO = O=C([*:1])[*:2]
For each record, write down the corresponding pIC50.

Qu. State the recorded pIC50 for this entry: Cc1ccccc1NC(=O)Nc1ccc(CC(=O)N[C@@H](CC(C)C)C(=O)N[C@@H](CC(=O)O)C(=O)N[C@@H](Cc2c[nH]c3ccccc23)C(N)=O)cc1
Ans. > 7.30

Qu. Can you handle CC(C)C[C@H](NC(=O)C1C2CC3CC(C2)CC1C3)C(=O)N[C@@H](CC(=O)O)C(=O)N[C@H](C(=O)O)C(C)C (some centres unmarked) next?
Ans. < 5.00

Qu. // repeat for COc1nc(CC(=O)N[C@@H](CC(C)C)C(=O)N[C@@H](CC(=O)O)C(=O)N[C@H](C(=O)N2CCC[C@H]2C(=O)O)C(C)C)ccc1NC(=O)Nc1ccccc1C [Compound 4] ({NH(2-Me-phenyl)-CO}-[X4]LDVP-OH) and report
Ans. > 7.30

Qu. Also need Cc1ccccc1NC(=O)Nc1ccc(CC(=O)N[C@@H](CC(C)C)C(=O)N[C@@H](CCC(=O)O)C(=O)N[C@H](C(N)=O)C(C)C)cc1 , thanks.
Ans. > 7.30

Qu. And then Cc1ccccc1NC(=O)Nc1ccc(CC(=O)N[C@@H](CC(C)C)C(=O)N[C@@H](CC(=O)O)C(=O)N[C@H](C(N)=O)C(C)C)cc1 , what is it?
Ans. > 7.30

Qu. Likewise for CCC(C)C(NC(=O)C(CC(=O)O)NC(=O)C(CC(C)C)NC(=O)c1ccc2ccccc2n1)C(=O)OC (centres unmarked) ?
Ans. 5.00 to 7.30

Qu. // repeat for CSCC[C@H](NC(=O)[C@H](CC(=O)O)NC(=O)[C@H](CO)NC(=O)Cc1ccc(NC(=O)Nc2ccccc2C)cc1)C(N)=O and report
Ans. > 7.30

Qu. And then CC(C)C[C@H](NC(=O)Nc1cnc2ccccc2n1)C(=O)N[C@@H](CC(=O)O)C(=O)N[C@H](C(=O)O)C(C)C , what is it?
Ans. < 5.00

Qu. Next compound: Cc1ccccc1NC(=O)Nc1ccc(CC(=O)N[C@H](CC(C)C)C(=O)N[C@@H](CC(=O)O)C(=O)N[C@@H](CCC(=O)O)C(N)=O)cc1
Ans. > 7.30

Qu. What do you have for CC(C)CNC(=O)[C@@H](NC(=O)[C@H](CC(=O)O)NC(=O)[C@H](CC(C)C)NC(=O)Cc1ccc(NC(=O)Nc2ccccc2)cc1)C(C)C ?
Ans. 5.00 to 7.30

Qu. Next entry: Cc1ccc2nc(C(=O)N[C@@H](CC(C)C)C(=O)N[C@@H](CC(=O)O)C(=O)N[C@H](C(=O)O)C(C)C)[nH]c(=O)c2c1
Ans. < 5.00

Qu. Again, but for Cc1ccccc1NC(=O)Nc1ccc(CC(=O)N[C@@H](CC(C)C)C(=O)N[C@@H](CC(=O)O)C(=O)N[C@@H](CC(C)C)C(N)=O)cc1
Ans. > 7.30

Qu. Next up: Cc1ccccc1NC(=O)Nc1ccc(CC(=O)N[C@@H](CCC(N)=O)C(=O)N[C@@H](CC(=O)O)C(=O)N[C@@H](CC(=O)O)C(N)=O)cc1
Ans. > 7.30

Qu. Can you handle CSCC[C@H](NC(=O)Cc1ccc(NC(=O)Nc2ccccc2C)cc1)C(=O)N[C@@H](CCC(=O)O)C(=O)N[C@H](C(N)=O)C(C)C next?
Ans. > 7.30

Qu. Cool, now CC[C@H](C)[C@H](NC(=O)[C@@H](CC(=O)O)NC(=O)[C@H](N)C(C)C)C(=O)NCc1ccc(NC(=O)Nc2ccccc2C)cc1
Ans. < 5.00

Qu. Item: Cc1ccccc1NC(=O)Nc1ccc(CC(=O)N[C@@H](CCC(=O)O)C(=O)N[C@@H](CC(=O)O)C(=O)N[C@@H](CC(C)C)C(N)=O)cc1
Ans. > 7.30

Qu. Param item: Cc1ccccc1NC(=O)Nc1ccc(CC(=O)N[C@@H](CS)C(=O)N[C@@H](CC(=O)O)C(=O)N[C@H](C(N)=O)C(C)C)cc1
Ans. > 7.30

Qu. Entry CCCC(NC(=O)C(CC(=O)O)NC(=O)C(CC(C)C)NC(=O)Cc1ccccc1)C(=O)NC (stereo not drawn) [Compound 51] (PhAc-Leu-Asp-[Nva]-NHMe; configuration not given here) please
Ans. < 5.00

Qu. Cc1ccccc1NC(=O)Nc1ccc(CC(=O)N[C@H](C(=O)N[C@@H](CC(=O)O)C(=O)N[C@H](C(N)=O)C(C)C)[C@@H](C)O)cc1 ?
Ans. > 7.30

Qu. Try this compound next: Cc1ccccc1NC(=O)Nc1ccc(CC(=O)N[C@@H](CCC(=O)O)C(=O)N[C@@H](CC(=O)O)C(=O)N[C@H](CC(C)C)C(N)=O)cc1
Ans. > 7.30

Qu. Quick one: Cc1ccccc1NC(=O)Nc1ccc(CC(=O)N2CCC[C@H]2C(=O)N[C@@H](CC(=O)O)C(=O)N[C@H](CC(N)=O)C(N)=O)cc1
Ans. > 7.30

Qu. // query: CSCC[C@H](NC(=O)Cc1ccc(NC(=O)Nc2ccccc2C)cc1)C(=O)N[C@@H](CC(=O)O)C(=O)N[C@H](C(N)=O)[C@@H](C)O
Ans. > 7.30

Qu. And what about the compound Cc1ccccc1NC(=O)Nc1ccc(CC(=O)N2CCC[C@H]2C(=O)N[C@@H](CC(=O)O)C(=O)N[C@H](C(N)=O)[C@@H](C)O)cc1 ?
Ans. > 7.30
